Biological target: UniProtKB Q95PM0
Sequence (Q95PM0 whole entry): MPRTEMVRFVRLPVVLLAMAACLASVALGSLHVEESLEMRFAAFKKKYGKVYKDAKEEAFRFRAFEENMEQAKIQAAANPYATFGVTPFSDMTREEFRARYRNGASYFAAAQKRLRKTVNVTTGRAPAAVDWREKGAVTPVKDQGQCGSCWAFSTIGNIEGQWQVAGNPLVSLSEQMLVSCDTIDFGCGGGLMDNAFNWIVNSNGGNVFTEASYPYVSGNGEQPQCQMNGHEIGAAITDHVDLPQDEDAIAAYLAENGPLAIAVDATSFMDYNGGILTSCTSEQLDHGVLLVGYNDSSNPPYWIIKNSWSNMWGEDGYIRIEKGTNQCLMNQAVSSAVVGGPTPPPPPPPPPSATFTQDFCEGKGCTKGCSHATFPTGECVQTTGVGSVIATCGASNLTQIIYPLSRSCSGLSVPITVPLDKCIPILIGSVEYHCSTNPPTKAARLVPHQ
Test: Inhibition of Trypanosoma brucei rhodesain in presence of curcumin using Cbz-Phe-Arg-AMC as substrate incubated for 30 mins by fluorometric assay
result_type: IC50
Hey, just the number and the unit after it is fine.

Fill in the recorded IC50 for this compound, with UniProtKB Q95PM0 as test system: CC(=O)/C=C/[C@H](CCc1ccccc1)NC(=O)[C@H](Cc1ccccc1)NC(=O)OCc1ccccc1
3.05 µM
